testTarget: UniProt:P57059
Sequence (P57059 whole entry): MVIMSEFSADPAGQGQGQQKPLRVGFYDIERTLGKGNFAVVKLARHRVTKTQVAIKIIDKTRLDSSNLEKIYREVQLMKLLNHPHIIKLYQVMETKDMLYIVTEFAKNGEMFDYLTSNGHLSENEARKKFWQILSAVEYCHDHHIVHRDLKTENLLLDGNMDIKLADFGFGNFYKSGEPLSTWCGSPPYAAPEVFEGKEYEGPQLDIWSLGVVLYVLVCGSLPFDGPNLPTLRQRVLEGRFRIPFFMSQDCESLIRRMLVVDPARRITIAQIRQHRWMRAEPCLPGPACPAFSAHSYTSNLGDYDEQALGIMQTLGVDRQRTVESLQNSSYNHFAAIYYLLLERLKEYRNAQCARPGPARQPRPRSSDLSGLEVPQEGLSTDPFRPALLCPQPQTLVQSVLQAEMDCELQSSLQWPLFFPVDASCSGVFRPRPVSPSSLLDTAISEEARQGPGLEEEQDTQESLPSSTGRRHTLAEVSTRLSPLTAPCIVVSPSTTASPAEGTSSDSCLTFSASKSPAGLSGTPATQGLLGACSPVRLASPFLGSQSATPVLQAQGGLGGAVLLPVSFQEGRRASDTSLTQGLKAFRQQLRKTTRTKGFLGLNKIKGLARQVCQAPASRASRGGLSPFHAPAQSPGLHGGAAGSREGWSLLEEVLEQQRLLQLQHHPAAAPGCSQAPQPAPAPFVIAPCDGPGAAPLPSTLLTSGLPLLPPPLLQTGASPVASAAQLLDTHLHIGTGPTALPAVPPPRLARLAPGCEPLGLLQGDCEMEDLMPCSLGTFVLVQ
endpointLabel: IC50 (nM)
Supply the numeric figure in nM, leaving out any unit text.

Here are 2 molecules together with their reported answers.
COc1cc(-c2c3c(C(F)F)cc(-c4cnn(CCS(C)(=O)=O)c4)cc3nn2C)cc(OC(F)F)c1C(=O)N1CC(O)(C(F)F)C1: 11.4
COc1cc(-c2cnn(C[C@H](C)O)c2)cc2nn(C)c(-c3cc(OC(F)F)c4c(c3)[C@@H](C)CNC4=O)c12 (single isomer, unassigned) [Example 175]: 7.5

Lookup: Lab note: UniProt:P57059 assay, enter IC50 for COc1cc(-c2c3c(C#N)cc(-c4cnn(C)c4)cc3nn2C)cc(OC(F)F)c1C(=O)NCC1CC1(F)F (stereo not drawn) here
Found: 13.8

----------
Catalogue of pIC50 values
testTarget: GST-tagged SIK3 (Homo sapiens (Human), UniProt Q9Y2K2)
Sequence (Q9Y2K2 whole entry): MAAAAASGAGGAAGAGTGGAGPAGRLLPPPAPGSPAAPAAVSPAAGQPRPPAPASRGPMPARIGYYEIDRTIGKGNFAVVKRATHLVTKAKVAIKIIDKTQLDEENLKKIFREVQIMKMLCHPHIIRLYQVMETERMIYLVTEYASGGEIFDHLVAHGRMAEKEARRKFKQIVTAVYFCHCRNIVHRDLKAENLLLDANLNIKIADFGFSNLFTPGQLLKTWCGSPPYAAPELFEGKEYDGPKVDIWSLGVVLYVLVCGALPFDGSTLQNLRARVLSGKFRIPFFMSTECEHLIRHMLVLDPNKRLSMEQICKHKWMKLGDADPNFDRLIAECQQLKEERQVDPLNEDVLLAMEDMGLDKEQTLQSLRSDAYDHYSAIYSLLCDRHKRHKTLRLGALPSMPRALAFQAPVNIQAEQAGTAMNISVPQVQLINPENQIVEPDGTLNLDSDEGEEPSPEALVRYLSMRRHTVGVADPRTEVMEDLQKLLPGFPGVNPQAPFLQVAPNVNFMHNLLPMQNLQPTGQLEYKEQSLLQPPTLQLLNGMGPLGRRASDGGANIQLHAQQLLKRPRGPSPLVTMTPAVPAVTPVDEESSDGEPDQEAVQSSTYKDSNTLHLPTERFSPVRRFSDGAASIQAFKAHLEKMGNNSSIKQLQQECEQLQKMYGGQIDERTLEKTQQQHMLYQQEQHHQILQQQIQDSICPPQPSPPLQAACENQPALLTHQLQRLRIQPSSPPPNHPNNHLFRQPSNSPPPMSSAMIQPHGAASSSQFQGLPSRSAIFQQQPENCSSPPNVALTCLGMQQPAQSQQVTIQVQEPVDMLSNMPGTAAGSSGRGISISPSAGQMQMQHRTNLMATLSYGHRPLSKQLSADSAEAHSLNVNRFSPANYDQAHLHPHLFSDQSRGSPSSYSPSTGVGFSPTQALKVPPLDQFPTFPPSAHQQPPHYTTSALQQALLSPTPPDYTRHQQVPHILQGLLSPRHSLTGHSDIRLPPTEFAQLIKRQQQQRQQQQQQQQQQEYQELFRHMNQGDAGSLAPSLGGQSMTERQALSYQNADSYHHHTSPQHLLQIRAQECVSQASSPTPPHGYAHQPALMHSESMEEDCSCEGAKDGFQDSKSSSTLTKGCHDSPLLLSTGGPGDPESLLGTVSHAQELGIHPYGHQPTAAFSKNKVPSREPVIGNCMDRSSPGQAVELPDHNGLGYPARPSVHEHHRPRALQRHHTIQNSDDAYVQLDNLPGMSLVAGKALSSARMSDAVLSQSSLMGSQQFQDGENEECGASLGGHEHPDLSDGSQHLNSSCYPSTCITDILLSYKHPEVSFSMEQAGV
Friendly reminder that pIC50 comes from taking -log10 of the concentration in mol/L.

CCn1cc(-c2cc(OC)c3c(-c4cc(OC(F)F)c5c(c4)[C@@H](C)CNC5=O)n(C)nc3c2)cn1 (single isomer, unassigned): 7.91
COc1cc(-c2c3c(OCC[C@H](C)O)cc(-c4cnn(C)c4)cc3nn2C)cc(OC(F)F)c1C(=O)N1CC(O)(C(F)(F)F)C1: 7.72
COc1cc(-c2c3c(C(F)F)cc(-c4cnn(C[C@H]5C[C@@H](O)C5)c4)cc3nn2C)cc(OC(F)F)c1C(=O)N[C@@H]1CC1(F)F: 8.96

Lookup: Lab note: GST-tagged SIK3 (Homo sapiens (Human), UniProt Q9Y2K2) assay, enter pIC50 for C[C@H]1CNC(=O)c2c(OC(F)F)cc(-c3c4c(C#N)cc(-c5cnn(C)c5)cc4nn3C)cc21 (single isomer, unassigned) here
Found: 8.46

Lookup: Lab note: GST-tagged SIK3 (Homo sapiens (Human), UniProt Q9Y2K2) assay, enter pIC50 for `COc1cc(-c2c3c(C#N)cc(-c4cnn(C[C@H]5C[C@@H](O)C5)c4)cc3nn2C)cc(OC(F)F)c1C(=O)NCC1(F)CC1` here
Found: 8.14

Lookup: Lab note: GST-tagged SIK3 (Homo sapiens (Human), UniProt Q9Y2K2) assay, enter pIC50 for COc1cc(-c2c3c(C#N)cc(-c4cnn(CCN5CC(F)(F)C5)c4)cc3nn2C)cc(OC(F)F)c1C(=O)NC[C@@H]1CC1(F)F (stereo in doubt) here
Found: 8.62

Lookup: Lab note: GST-tagged SIK3 (Homo sapiens (Human), UniProt Q9Y2K2) assay, enter pIC50 for `COc1cc(-c2c3c(C#N)cc(-c4cnn(CCC5(O)CCC5)c4)cc3nn2C)cc(OC(F)F)c1C(=O)NCC1(F)CC1` here
Found: 8.36

----------
A set of compounds tested on GST-tagged SIK3 (Homo sapiens (Human), UniProt Q9Y2K2), with measured IC50:
Supply the numeric figure in nM, leaving out any unit text.

COc1cc(-c2c3c(C#N)cc(-c4cnn(C[C@H](C)O)c4)cc3nn2C)cc2c1C(=O)NCC2(C)C: 7.8
COc1cc(-c2c3c(C#N)cc(-c4cnn(CC(=O)N5CC(F)(F)C5)c4)cc3nn2C)cc(OC(F)F)c1C(=O)NCC1(F)CC1: 4.9
COc1cc(-c2c3c(C(F)F)cc(-c4cn[nH]c4)cc3nn2C)cc(OC(F)F)c1C(=O)N[C@@H]1CC1(F)F: 1.3

Lookup: Lab note: GST-tagged SIK3 (Homo sapiens (Human), UniProt Q9Y2K2) assay, enter IC50 for `COc1cc(-c2c3c(C#N)cc(-c4cnn(CC5(O)CCC5)c4)cc3nn2C)cc(OC(F)F)c1C(=O)N[C@@H]1CC1(F)F` here
Found: 1.7

Lookup: Lab note: GST-tagged SIK3 (Homo sapiens (Human), UniProt Q9Y2K2) assay, enter IC50 for `COc1cc(-c2c3c(C#N)cc(-c4cn[nH]c4)cc3nn2C)cc(OC(F)F)c1C(=O)N[C@@H]1CC1(F)F` here
Found: 1.1

Lookup: Lab note: GST-tagged SIK3 (Homo sapiens (Human), UniProt Q9Y2K2) assay, enter IC50 for COc1cc(-n2cnc3cc(-c4cnn(C)c4)ccc32)cc(OC)c1C(=O)NCC(F)F [Comparative Example 2, reference compound] here
Found: 39.7

----------
A set of molecules tested on GST-tagged SIK2 (Homo sapiens (Human), UniProt Q9H0K1), with measured IC50:
Supply the numeric figure in nM, leaving out any unit text.

Here are 3 molecules together with their reported answers.
CCn1cc(-c2cc(C#N)c3c(-c4cc(OC)c(C(=O)N5CC(O)(C(F)(F)F)C5)c(OC(F)F)c4)n(C)nc3c2)cn1: 10.3
COc1cc(-c2c3c(C#N)cc(-c4cnn(C)c4)cc3nn2C)cc(OC(F)F)c1C(=O)N1CC(C)(C(F)F)C1: 9.7
CCOc1cc(-c2cnn(C)c2)cc2nn(C)c(-c3cc(OC)c(C(=O)N4CC(O)(C(F)(F)F)C4)c(OC(F)F)c3)c12: 12.8

Let us examine a further case.
Lookup: Lab note: GST-tagged SIK2 (Homo sapiens (Human), UniProt Q9H0K1) assay, enter IC50 for `COc1cc(-c2c3c(C#N)cc(-c4cnn(CC(=O)N(C)C)c4)cc3nn2C)cc(OC(F)F)c1C(=O)NCC1(F)CC1` here
Found: 10.5

----------
A set of molecules tested on GST-tagged SIK3 (Homo sapiens (Human), UniProt Q9Y2K2), with measured log10(IC50):
Quick note: numbers are log10 of IC50, with nM as the unit.

COc1cc(-c2c3c(OC(F)F)cc(-c4cnn(C)c4)cc3nn2C)cc(OC(F)F)c1C(=O)N[C@@H]1C[C@@H]1F: 0.88
COCCn1cc(-c2cc(C#N)c3c(-c4cc(OC)c5c(c4)C(C)(C)CNC5=O)n(C)nc3c2)cn1: 0.93
COc1cc(-c2c3c(C(F)F)cc(-c4cnn(CCS(C)(=O)=O)c4)cc3nn2C)cc(OC(F)F)c1C(=O)N1CC(O)(C(F)F)C1: 0.76
COc1cc(-c2c3c(OCC(F)(F)F)cc(-c4cnn(C)c4)cc3nn2C)cc(OC(F)F)c1C(N)=O: 0.90
COc1cc(-c2c3c(C#N)cc(-c4cnn(CC(=O)N(C)C)c4)cc3nn2C)cc(OC(F)F)c1C(=O)NCC1(F)CC1: 1.01
CCOc1cc(-c2cnn(C)c2)cc2nn(C)c(-c3cc(OC)c(C(N)=O)c(OC(F)F)c3)c12: 1.13

Lookup: Lab note: GST-tagged SIK3 (Homo sapiens (Human), UniProt Q9Y2K2) assay, enter log10(IC50) for COc1cc(-c2c3c(C#N)cc(-c4cnn(CCC(C)C)c4)cc3nn2C)cc2c1C(=O)NC[C@@H]2C (single isomer, unassigned) here
Found: 0.67

Lookup: Lab note: GST-tagged SIK3 (Homo sapiens (Human), UniProt Q9Y2K2) assay, enter log10(IC50) for `COc1cc(-c2c3c(C#N)cc(-c4cnn(CC5(O)CCC5)c4)cc3nn2C)cc(OC(F)F)c1C(=O)NCC1(F)CC1` here
Found: 1.10

Lookup: Lab note: GST-tagged SIK3 (Homo sapiens (Human), UniProt Q9Y2K2) assay, enter log10(IC50) for COc1cc(-c2c3c(C#N)cc(-c4cnn(CCN5CCOCC5)c4)cc3nn2C)cc(OC(F)F)c1C(=O)NC[C@@H]1CC1(F)F (single isomer, unassigned) here
Found: 0.93

Lookup: Lab note: GST-tagged SIK3 (Homo sapiens (Human), UniProt Q9Y2K2) assay, enter log10(IC50) for `COc1cc(-c2c3c(C#N)cc(-c4cnn(C)c4)cc3nn2C)cc(OC(F)F)c1C(=O)N1CC(O)(C(F)(F)F)C1` here
Found: 1.09

Lookup: Lab note: GST-tagged SIK3 (Homo sapiens (Human), UniProt Q9Y2K2) assay, enter log10(IC50) for `COc1cc(-c2c3c(OCCCCO)cc(-c4cnn(C)c4)cc3nn2C)cc(OC(F)F)c1C(=O)N1CC(O)(C(F)(F)F)C1` here
Found: 1.19

----------
A set of compounds tested on UniProt:Q9H0K1, with measured IC50:
Supply the numeric figure in nM, leaving out any unit text.

CCn1cc(-c2cc(C#N)c3c(-c4cc(OC)c5c(c4)[C@@H](C)CNC5=O)n(C)nc3c2)cn1 (single isomer, unassigned): 3.4
COc1cc(-c2c3c(C#N)cc(-c4cnn(CC5CCCS5(=O)=O)c4)cc3nn2C)cc(OC(F)F)c1C(=O)NCC1(F)CC1 (stereo not drawn): 7.5
COc1cc(-c2c3c(C#N)cc(-c4cnn(C)c4)cc3nn2C)cc(OC(F)F)c1C(=O)NC[C@@H]1CC1(F)F (single isomer, unassigned): 5.3

Lookup: Please list IC50 recorded for the compound `COc1cc(-c2c3c(OCC[C@H](C)O)cc(-c4cnn(C)c4)cc3nn2C)cc(OC(F)F)c1C(=O)N1CC(O)(C(F)(F)F)C1`
Found: 16.2

Lookup: Please list IC50 recorded for the compound `COCCn1cc(-c2cc(C#N)c3c(-c4cc(OC)c5c(c4)C(C)(C)CNC5=O)n(C)nc3c2)cn1`
Found: 2.2

Lookup: Please list IC50 recorded for the compound `COc1cc(-c2c3c(C#N)cc(-c4cnn(CC(=O)N5CCC(F)(F)C5)c4)cc3nn2C)cc(OC(F)F)c1C(=O)NCC1(F)CC1`
Found: 5.8
